Hello, the source for this data is PubChem BioAssay AID1986, in case you need it.

assay: inhibitors of HIV fusion peptide binding, primary screen, biochemical, uHTS, fluorescence dequenching (AID 1986); conditions: cell-free peptide binding, 30 min, at 20 µM
Hit rate of the full screen: of about 290,000 compounds, about 890 (0.31%) were called active. No stated cut-off is given here; in the data, active means inhibition mostly above about 52% (no sharp cut-off); inactive means mostly below about 76%. The sample holds actives, similar compounds and a random draw of the others, so the mix is not that of the screen.
Allowed answers: active, inactive

Which result was noted for this molecule in the test: `CC(C)OC(=O)c1cccc2c1C(=O)c1ccccc1-2`
inactive

// param item: `COc1ccccc1NC(=S)N=Nc1c(O)[nH]c2ccc(Br)cc12` ; yields the recorded call
inactive

Assay result, entry `O=C(CN(Cc1ccc(F)cc1)C(=O)CNS(=O)(=O)c1ccc(F)cc1)NCc1ccco1` — outcome?
inactive

Short answer needed: outcome of this test for O=C(Nc1ccccc1)OC1C2CCC1C(N1CCCCC1)CC2 (stereo not drawn) ?
inactive

Hey, what did the test say about `COc1cc([N+](=O)[O-])ccc1NC(=O)NCc1ccccn1` ?
inactive

For this molecule, state the assay outcome: `O=C(CCCCCN1C(=O)c2ccccc2C1=O)Nc1ccc(C(=O)O)cc1`
inactive

// param item: `COc1cc2c(cc1O)CC[n+]1cc3c(OC)c(OC)ccc3cc1-2` ; yields the recorded call
inactive

Write down the call the test reported for this molecule. Item: `COc1cc(OC)c(OC)cc1CN1CCc2ccccc2C1`
inactive

Could you please tell me the result logged for `N#C/C(=N\Nc1ccc(S(=O)(=O)N2CCCCCC2)cc1)C(N)=S` in this assay?
inactive

Just curious, what result did `COc1ccc2cc3[n+](cc2c1OC)CCc1cc2c(cc1-3)OCO2` get here?
inactive

Short answer needed: outcome of this test for `O=C(/C=C/c1ccco1)Nc1ccccn1` ?
inactive

Dear all, I need the recorded test outcome for `N#C/C(=N\Nc1ccc(S(=O)(=O)N2CCc3ccccc32)cc1)C(N)=S` , thank you.
active

// return assay outcome for `O=C(Nc1cc(S(=O)(=O)N2CCOCC2)ccc1N1CCOCC1)c1cccc(S(=O)(=O)N2CCCCC2)c1`
inactive

Field: outcome | Entry: `COc1ccccc1N=Nc1c(O)[nH]c2ccc(Br)cc12`
active

// param item: `Cc1cc(C)n2nc(C(=O)N3CCOCC3)nc2n1` ; yields the recorded call
inactive

Which outcome did this test record for the molecule `COc1ccc2c(ccc[n+]2CC(=O)c2ccccc2)c1` ?
inactive

Look up the recorded call for `CCCn1cnc2scc(-c3ccc(C)cc3)c2c1=O` in this test.
inactive

Dear all, I need the recorded test outcome for `COc1ccc(S(=O)(=O)Nc2cccc(S(=O)(=O)N3CCCCCC3)c2)cc1` , thank you.
inactive

Kindly provide the recorded test outcome for the following molecule: `N#C/C(=C/c1ccccc1OCc1ccc(F)cc1)c1ccc(C(=O)O)cc1`
inactive

I'd appreciate the recorded outcome for `Cc1ccc2nc(N/C(=N/S(=O)(=O)c3ccc(F)cc3)c3ccccc3)sc2c1` from this test.
inactive

Returns: the outcome recorded for `O=C(c1ccco1)N1CCN(c2ccc([N+](=O)[O-])c(N3CCOCC3)c2)CC1` in this assay.
inactive

Please let me know the test result on file for `CCCOc1cccc(C(=O)N/N=C/c2ccoc2)c1` .
inactive

Could you check what this test reported for `COc1ccc(CCN2CCCn3c2nc2c3c(=O)n(CC(C)C)c(=O)n2C)cc1OC` ?
inactive

---

experiment: inhibitors of HIV fusion peptide binding, primary screen, biochemical, uHTS, fluorescence dequenching (AID 1986); details: cell-free peptide binding, 30 min, at 20 µM, stronger effect = higher value
About 890 (0.31%) of roughly 290,000 compounds were called active. The sample holds actives, similar compounds and a random draw of the others, so the mix is not that of the screen.
We use 20% as the dividing line for inhibition: on or above the line is fulfilled, below is not fulfilled.

Item `CCOC(=O)C1=C(O)/C(=C/c2ccc(-c3ccccc3C(=O)O)o2)SC1=Nc1ccc(OC)cc1` with inhibition of 20% or above?
fulfilled

I'd appreciate it if you could say whether `O=C1NC(=Nc2ccccc2Cl)S/C1=C\c1cccc([N+](=O)[O-])c1` has inhibition at least equal to 20%.
fulfilled

Decide: is the reported value of inhibition for `CCC(=O)Nc1cccc(NC(=O)c2cccc([N+](=O)[O-])c2C)c1` equal to or greater than 20%?
not fulfilled

API: above_or_equal(metric=inhibition, cutoff=20%) for item `CC(C)(C)C(=O)Nc1ccc(C(=O)Nc2cccc(Oc3ccc(C(=O)O)c(C(=O)O)c3)c2)cc1`
fulfilled

Could you verify whether the entry `COc1ccc(CCC(=O)Nc2ccccc2C(F)(F)F)cc1` shows inhibition of no less than 20%?
not fulfilled

Item `Cc1cc(-c2csc(NC(=O)c3ccc(C#N)cc3)n2)c(C)n1Cc1ccco1` with inhibition of 20% or above?
fulfilled

Given the entry `COc1cc(/C=N/NC(N)=O)ccc1OCC(=O)Nc1ccc(C)c(C)c1` , answer whether its inhibition meets or surpasses 20%.
not fulfilled

Textbook exercise: given the entry `O=[N+]([O-])c1nn(-c2ccc3c(c2)OCCO3)n(O)c1=NCc1ccc(F)cc1` , state whether its inhibition is greater than or equal to 20%.
not fulfilled

Hi team, for `COc1cccc(N=C2NC(=O)/C(=C/c3cc([N+](=O)[O-])ccc3O)S2)c1` , is the recorded inhibition at or above 20%?
fulfilled

Check if inhibition >= 20% (inclusive). Item: CC1(C)NC(=O)N(CC(O)CN(Cc2ccccc2)Cc2ccccc2)C1=O (centres undefined)
not fulfilled

Does the compound `CCCOc1cc(C)c(S(=O)(=O)n2ccc(C)n2)cc1C` have recorded inhibition that is 20% or more?
not fulfilled

In plain terms: is recorded inhibition at least 20% for `COc1ccccc1/C=C(/C(=O)NCCCn1ccnc1)c1ccccc1` ?
not fulfilled

hey, is inhibition for this one >= 20%? `CCOC(=O)C1=C(O)/C(=C/c2cc(OC)c(O)c(OC)c2)SC1=Nc1ccc(OC)cc1`
fulfilled

---

assay: inhibitors of HIV fusion peptide binding, primary screen, biochemical, uHTS, fluorescence dequenching (AID 1986); conditions: cell-free peptide binding, 30 min, at 20 µM, stronger effect = higher value
The campaign covered roughly 290,000 compounds. About 890 (0.31%) were called active. What follows is part of a selection rich in actives, with near analogues and random picks from the rest.
I'd be grateful if you could share measured inhibition for these entries.
Lab book: enter the figure in %, no units written.

Record request: inhibition value, item `COCCCNC(=O)c1ccc(CS(=O)(=O)c2cccc(C(F)(F)F)c2)o1`
-1.7

Given the entry `Cc1ccc(CCNC(=O)c2nnc(CS(=O)(=O)c3ccccc3)o2)cc1` , report its measured inhibition.
-0.3

inhibition for `CCN(CC)c1ccc(/C=C/c2cccc[n+]2C)c(OC)c1` ?
77.3

Param item = `Cc1cccc2c(N=Nc3ccccc3)c(O)[nH]c12` ; retrieve measured inhibition.
52.7

I have this compound here, `CCOc1ccc(-n2cnnn2)cc1S(=O)(=O)NC1CC1` , and I need its recorded inhibition.
0.2

If you can, please state the reported inhibition value of `COc1ccc(N=Cc2cc(Cc3ccccc3Cl)cc([N+](=O)[O-])c2O)cc1OC` .
69.3

Give its inhibition value. Item: CCC1(c2ccccc2)NC(=O)N(CC(=O)Nc2ccc(OC)nc2)C1=O (stereo not drawn)
116

// inhibition lookup, key: COc1cc(/C=C(\C#N)C(=O)NCC2CCCO2)ccc1OC(C)C (stereo not drawn)
-1.4

Fill in: inhibition of `CC1(C)Cc2nc3sc4c(N5CCCC5)nnnc4c3cc2CO1` is ___
0.1

Data request, read-out inhibition, for `COc1ccc(C(=O)Nc2ccnn2C2CCN(C(=O)c3cnsn3)CC2)cc1`
-1.2

What does the record list as inhibition for `CCN(CC)c1ccc(C=O)c(OC)c1` ?
-0.9

Quick one: inhibition for `Cc1nc(=O)c(-c2ccccc2)c(C)n1CCCCCC(=O)O` ?
-2.3

What value of inhibition has been recorded for this entry: `Cc1cccc2c(N=O)c(O)[nH]c12`
17.9

---

experiment: inhibitors of HIV fusion peptide binding, primary screen, biochemical, uHTS, fluorescence dequenching (AID 1986); conditions: cell-free peptide binding, 30 min, at 20 µM, stronger effect = higher value
Out of some 290,000 compounds screened, about 890 (0.31%) were called active. The sample holds actives, similar compounds and a random draw of the others, so the mix is not that of the screen.
For each record, write down the corresponding inhibition.
Give just the number in %; leave the unit off.

For the molecule shown here, COC(=O)c1c(NC(=O)C2COc3ccccc3O2)sc2c1CCN(Cc1ccccc1)C2 (stereo not drawn) , give the reported inhibition.
3.6

Consider the molecule shown here: CCS(=O)(=O)Nc1cccc(C2=NN(S(C)(=O)=O)C(c3cccs3)C2)c1 (stereo not drawn) What is its recorded inhibition?
0.5

Report inhibition for `COC(=O)CN1C(=S)N(c2ccc(OC)cc2)C(=O)/C1=C/c1ccc(N2CCOCC2)cc1` please.
73.4

---

assay: inhibitors of HIV fusion peptide binding, primary screen, biochemical, uHTS, fluorescence dequenching (AID 1986); conditions: cell-free peptide binding, 30 min, measured here: repeat confirmation average inhibition, at 18.6 µM, stronger effect = higher value
The whole screen tested about 290,000 compounds, of which about 890 (0.31%) were called active. This is one part of a sample in which actives are shown more often than they occur.
Categories are defined by ranges of inhibition, namely bucket A = under 20%, bucket B = from 20% up to 70%, bucket C = 70% and over

Just checking, what class would you give `NC1=CC(=O)c2cccc3cccc1c23` here?
bucket B

Looking at `CC(=O)c1cc(NC(=O)c2cccc(C(F)(F)F)c2)c(=O)oc1/C=C/N(C)C` , which class would you pick?
bucket C

Using the reported inhibition, which band applies to `O=C1NN(c2ccccc2)C(=O)/C1=C\c1ccc(-c2cc([N+](=O)[O-])ccc2O)o1` ?
bucket A

Into which category would you place `CN1C(=O)/C(=C\c2ccc(N(C)C)cc2)OC1=S` ?
bucket C

Where would CN1CC=C2C(C#N)=C(N)C(C#N)(C#N)C(CCc3ccccc3)C2C1 (configuration not stated) land among the classes by reported inhibition?
bucket A

Which category fits this record: `COc1cc2ccccc2cc1C(=O)NC(=S)Nc1ccc(C(=O)O)cc1`
bucket A

Could you tell me which band `COc1ccccc1N1C(=O)c2cccc3c(N(C)CCO)ccc(c23)C1=O` belongs to?
bucket B

Hi there! Could you help me figure out the category for `CCOC(=O)/C(=C/C1=CC(=C/N(C)C)/C(=O)O1)C(C)=O` please?
bucket B

Just checking, what class would you give `Oc1ccc(N=C/C=C/c2cccc(Br)c2)cc1-c1nc2ccccc2s1` here?
bucket A

Categorize the following entry: `COC(=O)C[n+]1cccc2ccccc21`
bucket B

Class? Entry: `COc1cccc(Nc2nc3ccccc3nc2NS(=O)(=O)c2cccs2)c1`
bucket B

In plain terms, what class is `Cc1ccc(-c2cc(-c3ccco3)c3c(N)c(C(=O)NN)oc3n2)cc1` ?
bucket A

Using the reported inhibition, which band applies to `c1ccc2[nH]c3cc4ncnc4cc3nc2c1` ?
bucket C

Record `COc1cc(N2CCCC2)c(OC)cc1/C=C(/C#N)c1cccc(Br)c1` — which class?
bucket B

Form: Item = `Cn1nc(C(F)(F)F)cc1-c1ccc(/C=C(\C#N)C(=O)c2ccccc2)s1` ; Class = ?
bucket C

The entry to classify is `Cc1cc[n+](-c2[nH]c(=O)sc2/C=N/N=C(\[O-])c2ccccc2)cc1C` ; which class holds it?
bucket C

// bin(item) where item = CCOc1cc(/C=N/N=C2/NC(=O)C(CC(=O)O)S2)ccc1OCc1ccccc1Cl (configuration not stated)
bucket B

# bin label for `COc1ccc(-c2nn(-c3ccccc3)cc2C(=O)N/N=C/c2ccc([N+](=O)[O-])o2)cc1`
bucket A

Classify this compound: `COc1cc2ccccc2cc1C(=O)NC(=S)Nc1cc(C(=O)O)ccc1C`
bucket A

Place this compound in its band: `CCN(CC)Cc1c(O)ccc2c1O/C(=C\C=C\c1ccccc1)C2=O`
bucket C

Category of `Cc1ccc(N=C2NC(=O)/C(=C/c3cn(C)c4ccccc34)S2)cc1C` , please.
bucket C

State the band of COc1ccccc1N1C(=O)C2C(C(=O)c3ccccc3)=NN(c3ccc(Br)cc3)C2C1=O (configuration not stated)
bucket B

Class label required: `CC(C)=C1C(=O)NN(c2cccc(Cl)c2)C1=O`
bucket A

Looking at `Cc1ccc(/C=C2/NC(=O)N(Cc3ccccc3F)C2=O)s1` , which class would you pick?
bucket C

Any idea which band `COc1ccc(NC(=O)/C(C#N)=C\C=C\c2ccco2)cc1` is in?
bucket A
